# credit: patent US12600726B2

Biological target: Human M4 (Homo sapiens, UniProt P08173)
Construct: expressed in transfected cells; host or cells: CHO-K1 (ATCC), stably expressing M4 and Gqi5
Experiment: mAChR M4 cell-based functional calcium flux assay (human M4/Gqi5/CHO cells)
Details: % ACh maximum at 30 μM
experimental.readout: Emin (human M4) (%)

[a] Cc1ccc(F)cc1-c1ccc(NCC2CC23CCN(CCC(C)(C)C)CC3)nn1 (centres unmarked) [Compound 29]
[b] Fc1ccc(Cl)c(-c2ccc(NC[C@@H]3CC34CCN(CC3CCCCCC3)CC4)nn2)c1 [Compound 109]
[c] Cc1cnn(C)c1-c1ccc(NC(=O)C2CC23CCN(CC2CC4C=CC2C4)CC3)nn1 (centres unmarked) [Compound 8]
[d] Cc1cnn(C)c1-c1ccc(NC(=O)C2CC23CCN(CC(C)C(C)(C)C)CC3)nn1 (centres unmarked) [Compound 7]
[e] CC(=O)Nc1ccc(-c2ccc(NC[C@H]3CC34CCN(CC3CCOCC3)CC4)nn2)cc1 [Compound 126]
// query Put the above entries in order of falling Emin (human M4). Reply with the item labels sorted in the order that was asked for.
// result c, e, d, b, a

----------
Target: Human M4 (Homo sapiens, UniProt P08173)
Sequence (P08173 1-479): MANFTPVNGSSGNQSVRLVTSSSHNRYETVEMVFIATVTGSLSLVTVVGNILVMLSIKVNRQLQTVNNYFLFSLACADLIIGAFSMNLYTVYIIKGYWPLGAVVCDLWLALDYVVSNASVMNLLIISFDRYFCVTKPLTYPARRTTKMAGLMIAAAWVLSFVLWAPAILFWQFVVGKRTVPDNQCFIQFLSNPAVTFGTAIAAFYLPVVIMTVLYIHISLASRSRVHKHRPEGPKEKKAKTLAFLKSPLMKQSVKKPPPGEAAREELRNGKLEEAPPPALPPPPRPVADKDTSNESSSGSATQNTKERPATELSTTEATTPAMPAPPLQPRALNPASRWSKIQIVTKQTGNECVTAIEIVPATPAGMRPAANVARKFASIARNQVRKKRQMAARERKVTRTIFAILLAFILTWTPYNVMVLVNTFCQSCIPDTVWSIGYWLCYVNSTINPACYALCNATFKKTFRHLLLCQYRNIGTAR
Assay: mAChR M4 cell-based functional calcium flux assay (human M4/Gqi5/CHO cells)
Details: decrease of the response to an EC80 concentration of acetylcholine
Method: Human, rat, or mouse M4. cDNA, along with the chimeric G protein Gqi5, were transfected into Chinese hamster ovary (CHO-K1) cells purchased from the American Type Culture Collection using Lipofectamine2000. […] Calcium flux was measured using the Functional Drug Screening System (FDSS) 6000 or 7000 (Hamamatsu Corporation, Tokyo, Japan) as an increase in the fluorescent static ratio. […] Agonist activity was analyzed as a concentration-dependent increase in calcium mobilization upon compound addition. […]
experimental.readout: IC50 (µM)

Look over these answered cases.
| compound | unit.of.measurement | IC50 |
| --- | --- | --- |
| CC(C)(C)CCN1CCC2(CC1)CC2CNc1ccc(Cl)nn1 (centres unmarked) [Compound 20] | µM | 0.27 |
| CC(C)(C)CCN1CCC2(CC1)CC2CNc1ccc(-c2ccccc2F)nn1 (centres unmarked) [Compound 26] | µM | 0.0133 |
| CC(C)(C)CCN1CCC2(CC1)CC2CNc1ccc(-c2ccc3c(c2)OCO3)nn1 (centres unmarked) [Compound 46] | µM | 0.0122 |

[I] C1=CC2CC1CC2CN1CCC2(CC1)CC2CNc1ccc(N2CCOCC2)nn1 (centres unmarked) [Compound 82]
[II] Cc1nn(C)cc1-c1ccc(NCC2CC23CCN(CC2CC2)CC3)nn1 (centres unmarked) [Compound 55]
// query Between I and II , which one shows the smaller IC50 number? Output the label that corresponds to your choice.
// result I
(I: 0.00506 µM, II: 2.89 µM)

----------
Biological target: Rat M4 (Rattus norvegicus, UniProt P08485)
Construct: expressed in transfected cells; host or cells: CHO-K1 (ATCC), stably expressing M4 and Gqi5
Sequence (P08485 whole entry): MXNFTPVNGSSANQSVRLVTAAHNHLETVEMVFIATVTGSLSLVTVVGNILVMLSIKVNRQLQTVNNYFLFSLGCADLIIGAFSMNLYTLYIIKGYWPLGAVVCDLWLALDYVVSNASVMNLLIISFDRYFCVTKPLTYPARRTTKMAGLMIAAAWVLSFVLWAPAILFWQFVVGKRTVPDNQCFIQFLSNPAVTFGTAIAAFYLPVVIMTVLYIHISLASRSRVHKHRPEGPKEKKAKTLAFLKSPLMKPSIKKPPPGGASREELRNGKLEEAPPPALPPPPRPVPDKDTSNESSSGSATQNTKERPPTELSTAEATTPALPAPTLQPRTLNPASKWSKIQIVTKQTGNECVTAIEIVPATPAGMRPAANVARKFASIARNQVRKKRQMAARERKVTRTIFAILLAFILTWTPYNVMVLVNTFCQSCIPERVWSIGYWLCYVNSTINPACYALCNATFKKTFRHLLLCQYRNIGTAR
Test: mAChR M4 cell-based functional calcium flux assay (rat M4/Gqi5/CHO cells)
Settings: decrease of the response to an EC80 concentration of acetylcholine
experimental.readout: IC50 (nM)

| compound | unit.of.measurement | IC50 |
| --- | --- | --- |
| Fc1ccc(Cl)c(-c2ccc(NCC3CC34CCN(CC3CCCOC3)CC4)nn2)c1 (stereo not drawn) | nM | 519 |

[1] Cc1nn(C)cc1-c1nnc(NCC2CC23CCN(Cc2ccccc2)CC3)c2ccccc12 (stereo not drawn)
[2] Cc1nn(C)cc1-c1ccc(NCC2CC23CCN(CC2CC4C=CC2C4)CC3)nn1 (stereo not drawn)
[3] Fc1ccc(Cl)c(-c2ccc(NC[C@@H]3CC34CCN(CC3CC5CCC3O5)CC4)nn2)c1 (stereo partly drawn)
[4] CCC(C)CN1CCC2(CC1)CC2CNc1ccc(-c2cn(C)nc2C)nn1 (stereo not drawn)
[5] c1cc(N2CCOCC2)nnc1NCC1CC12CCN(CC1CCCCC1)CC2 (stereo not drawn)
// query Put the items in order so that reported IC50 rises from first to last. Reply with the item labels sorted in the order that was asked for.
// result 2, 3, 5, 4, 1

----------
Biological target: Rat M4 (Rattus norvegicus, UniProt P08485)
Construct: expressed in transfected cells; host or cells: CHO-K1 (ATCC), stably expressing M4 and Gqi5
Assay: mAChR M4 cell-based functional calcium flux assay (rat M4/Gqi5/CHO cells)
Conditions: decrease of the response to an EC80 concentration of acetylcholine
experimental.readout: IC50 (nM)

Look over these answered cases.
| compound | IC50, nM |
| --- | --- |
| Cc1ccc(/C=C/c2ccc(NCC3CC34CCN(CCC(C)(C)C)CC4)nn2)cc1 (centres unmarked) [Compound 92] | 1010 |
| CC(C)(C)CCN1CCC2(CC1)CC2CNc1ccc(-c2cccc(F)c2Cl)nn1 (centres unmarked) [Compound 41] | 105 |
| Cc1ccc(F)cc1-c1ccc(NCC2CC23CCN(CCC(C)(C)C)CC3)nn1 (centres unmarked) [Compound 29] | 39.8 |

[a] CC(=O)Nc1ccc(-c2ccc(NC[C@@H]3CC34CCN(CCC(C)(C)C)CC4)nn2)cc1 [Compound 111]
[b] CC(=O)Nc1ccc(-c2ccc(NC[C@@H]3CC34CCN(Cc3ncccc3C)CC4)nn2)cc1 [Compound 122]
[c] CC(=O)Nc1ccc(-c2nnc(NCC3CC34CCN(CC3CCCCC3)CC4)c(C)c2C)cc1 (centres unmarked) [Compound 117]
[d] CC(C)(C)CCN1CCC2(CC1)CC2CNc1ccc(N2CCC(F)(F)C2)nn1 (centres unmarked) [Compound 75]
[e] C1=CC2CC1CC2CN1CCC2(CC1)CC2CNc1ncc(-c2ccccc2)s1 (centres unmarked) [Compound 71]
// query Put the items in order so that reported IC50 rises from first to last. Reply with the item labels sorted in the order that was asked for.
// result a, c, d, b, e
(a: 7.53 nM, c: 13.7 nM, d: 114 nM, b: 320 nM, e: 833 nM)

----------
Target: Rat M4 (Rattus norvegicus, UniProt P08485)
Construct: expressed in transfected cells; host or cells: CHO-K1 (ATCC), stably expressing M4 and Gqi5
Assay: mAChR M4 cell-based functional calcium flux assay (rat M4/Gqi5/CHO cells)
Conditions: % ACh maximum at 30 μM
Experimental: Human, rat, or mouse M4. cDNA, along with the chimeric G protein Gqi5, were transfected into Chinese hamster ovary (CHO-K1) cells purchased from the American Type Culture Collection using Lipofectamine2000. […] Calcium flux was measured using the Functional Drug Screening System (FDSS) 6000 or 7000 (Hamamatsu Corporation, Tokyo, Japan) as an increase in the fluorescent static ratio. […] Agonist activity was analyzed as a concentration-dependent increase in calcium mobilization upon compound addition. […]
experimental.readout: Emin (rat M4) (%)

Look over these answered cases.
| compound | Emin (rat M4) (%) |
| --- | --- |
| Cc1nn(C)cc1-c1ccc(NCC2CC23CCN(CCC(C)(C)C)CC3)nn1 (stereo not shown) [Compound 50] | 3.70 |
| CCC(C)CN1CCC2(CC1)CC2CNc1ccc(-c2cn(C)nc2C)nn1 (stereo not shown) [Compound 51] | 7.13 |
| Fc1ccc(Cl)c(-c2ccc(NCC3CC34CCN(CC3CCCCC3)CC4)nn2)c1 (stereo not shown) [Compound 14] | 2.42 |
| Cc1cnn(C)c1-c1ccc(NCC2CC23CCN(CCC(C)(C)C)CC3)nn1 (stereo not shown) [Compound 35] | 3.44 |
| CC(C)(C)CCN1CCC2(CC1)C[C@H]2CNc1ccc(-c2cc(F)ccc2Cl)nn1 [Compound 64] | 3.68 |
| CC(=O)Nc1ccc(-c2nnc(NCC3CC34CCN(CC3CCCCC3)CC4)c(C)c2C)cc1 (stereo not shown) [Compound 117] | 4 |

[I] CC(C)(C)CCN1CCC2(CC1)CC2CNc1ccc(-c2cc(F)ccc2C#N)nn1 (stereo not shown) [Compound 43]
[II] Fc1ccc(Cl)c(-c2ccc(NCC3CC34CCN(CC(c3ccccc3)c3ccccc3)CC4)nn2)c1 (stereo not shown) [Compound 17]
[III] CC(=O)Nc1ccc(-c2ccc(NC[C@@H]3CC34CCN(CC3CCCCCC3)CC4)nn2)cc1 [Compound 119]
// query Put the items in order so that reported Emin (rat M4) rises from first to last. Reply with the item labels sorted in the order that was asked for.
// result I, III, II

[P] Cc1ccc(F)cc1-c1ccc(NCC2CC23CCN(CCC(C)(C)C)CC3)nn1 (stereo not shown) [Compound 29]
[Q] c1ccc(-c2cnc(NCC3CC34CCN(CC3CCOCC3)CC4)s2)cc1 (stereo not shown) [Compound 73]
// query Between P and Q , which one shows the smaller Emin (rat M4) number? Output the label that corresponds to your choice.
// result P

[1] CC(C)(C)CCN1CCC2(CC1)CC2CNc1ccc(-c2cnccc2C(F)(F)F)nn1 (stereo not shown) [Compound 49]
[2] c1cc(N2CCOCC2)nnc1NCC1CC12CCN(CC1CCCCC1)CC2 (stereo not shown) [Compound 83]
[3] Cc1ccncc1-c1ccc(NCC2CC23CCN(CCC(C)(C)C)CC3)nn1 (stereo not shown) [Compound 25]
[4] Cc1cnn(C)c1-c1ccc(NC(=O)C2CC23CCN(CCC(C)(C)C)CC3)nn1 (stereo not shown) [Compound 5]
// query Put the items in order so that reported Emin (rat M4) rises from first to last. Reply with the item labels sorted in the order that was asked for.
// result 1, 3, 2, 4

[1] CC(C)(C)CCN1CCC2(CC1)CC2COc1ccc(-c2cc(F)ccc2Cl)nn1 (stereo not shown) [Compound 77]
[2] Cc1cnn(C)c1-c1ccc(N(C)CC2CC23CCN(CCC(C)(C)C)CC3)nn1 (stereo not shown) [Compound 76]
[3] Cc1nn(C)cc1-c1ccc(NCC2CC23CCN(CC(c2ccccc2)c2ccccc2)CC3)nn1 (stereo not shown) [Compound 59]
[4] Cc1cnn(C)c1-c1ccc(NCC2CC23CCN(CCC2CCCO2)CC3)nn1 (stereo not shown) [Compound 4]
// query Put the items in order so that reported Emin (rat M4) rises from first to last. Reply with the item labels sorted in the order that was asked for.
// result 1, 3, 2, 4
(1: 3%, 3: 4.58%, 2: 7%, 4: 26.5%)

[1] CC(C)(C)CCN1CCC2(CC1)CC2CNc1ccc(N2CCC(F)(F)CC2)nn1 (stereo not shown) [Compound 80]
[2] Cc1cccnc1CN1CCC2(CC1)C[C@H]2CNc1ccc(-c2cc(F)ccc2Cl)nn1 [Compound 114]
// query Parameter check: reported Emin (rat M4) is higher for which label, 1 or 2 ? Output the label that corresponds to your choice.
// result 2

[I] CC(C)(C)CCN1CCC2(CC1)CC2CNc1ccc(-c2cccc(F)c2Cl)nn1 (stereo not shown) [Compound 41]
[II] CC(C)(C)CCN1CCC2(CC1)CC2CNc1ccc(-c2ccccc2OC(F)(F)F)nn1 (stereo not shown) [Compound 48]
[III] Cc1nn(C)cc1-c1ccc(NCC2CC23CCN(CC2CCOCC2)CC3)nn1 (stereo not shown) [Compound 61]
// query Put the items in order so that reported Emin (rat M4) rises from first to last. Reply with the item labels sorted in the order that was asked for.
// result II, I, III
(II: 2.26%, I: 3.33%, III: 5.67%)

[1] Cn1nc(C(F)(F)F)cc1-c1ccc(NCC2CC23CCN(CCC(C)(C)C)CC3)nn1 (stereo not shown) [Compound 39]
[2] C1=CC2CC1CC2CN1CCC2(CC1)CC2CNc1ccc(N2CCOCC2)nn1 (stereo not shown) [Compound 82]
// query Parameter check: reported Emin (rat M4) is higher for which label, 1 or 2 ? Output the label that corresponds to your choice.
// result 2
(2: 6%, 1: 3.42%)

[1] Fc1ccc(Cl)c(-c2ccc(OCC3CC34CCN(CC3CCCCC3)CC4)nn2)c1 (stereo not shown) [Compound 87]
[2] Cc1cnn(C)c1-c1ccc(NC(=O)C2CC23CCN(CC(C)C(C)(C)C)CC3)nn1 (stereo not shown) [Compound 7]
// query Parameter check: reported Emin (rat M4) is higher for which label, 1 or 2 ? Output the label that corresponds to your choice.
// result 2
(2: 22.7%, 1: 3%)
